target: CYP2D6 (Homo sapiens, UniProt P10635); test: CYP2D6 inhibition assay (bufuralol, pooled human liver microsomes); conditions: 2D6 IC50 (uM), CYP enzyme inhibition
Sequence (P10635 whole entry): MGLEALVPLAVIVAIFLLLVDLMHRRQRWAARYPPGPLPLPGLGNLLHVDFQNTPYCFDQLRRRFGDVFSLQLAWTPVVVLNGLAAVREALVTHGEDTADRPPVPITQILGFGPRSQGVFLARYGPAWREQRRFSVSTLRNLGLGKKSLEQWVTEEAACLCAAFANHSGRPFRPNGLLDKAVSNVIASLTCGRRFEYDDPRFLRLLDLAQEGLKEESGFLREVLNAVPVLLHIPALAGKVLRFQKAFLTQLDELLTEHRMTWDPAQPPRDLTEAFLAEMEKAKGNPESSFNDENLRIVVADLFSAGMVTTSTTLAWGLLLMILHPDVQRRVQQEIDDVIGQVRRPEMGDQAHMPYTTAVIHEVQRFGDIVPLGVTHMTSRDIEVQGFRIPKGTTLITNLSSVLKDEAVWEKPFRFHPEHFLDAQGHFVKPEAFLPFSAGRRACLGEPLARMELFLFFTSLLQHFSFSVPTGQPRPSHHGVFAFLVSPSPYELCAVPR
recorded.metric: IC50 (µM)
Field: numeric (µM). Do not append units.

Input: Reported IC50, compound COCC(=O)N[C@@H](Cc1cccc(-c2nccs2)c1)[C@H](O)CN[C@H]1CC2(CCC2)Oc2ncc(CC(C)(C)F)cc21 [compound 813] : ____
Output: 1.1

Input: How about COCC(=O)N[C@@H](Cc1cccc(F)c1)[C@H](O)CN[C@H]1CC2(CCC2)Oc2c(Br)cc(CC(C)C)cc21 [compound 514] ?
Output: 6

Input: How about CC(C)Cc1cnc2c(c1)[C@@H](NC[C@@H](O)[C@H](Cc1ccc3c(c1)OCO3)NC(=O)[C@H](C)F)CC1(CCC1)O2 [compound 552] ?
Output: 2.3

Input: How about CCO[C@@H](C)C(=O)N[C@@H](Cc1ccc2c(c1)OCO2)[C@H](O)CN[C@H]1CC2(CCC2)Oc2ncc(CC(C)C)cc21 [compound 809] ?
Output: 6.7

Input: How about CO[C@H](C)C(=O)N[C@@H](Cc1ccccc1)[C@H](O)CN[C@H]1CC2(CCC2)Oc2c1cc(CC(C)(C)C)nc2-c1ccncc1 [compound 543] ?
Output: 2.6

Input: How about CO[C@H](C)C(=O)N[C@@H](Cc1cccc(F)c1)[C@H](O)CN[C@H]1CC2(CCC2)Oc2c1cc(CC(C)(C)C)nc2-c1ccncc1 [compound 533] ?
Output: 1.4
